Experiment: Clearance in Wistar rat at […], iv and 11 to 12.2 umol/kg, po
Type: ADME, organism-based
Conditions: in vivo
Entries and their measured clearance follow.
PARAMETER_MEASURED: clearance

# MOL_SMILES, RESULT
data = [
    ("COCC[C@H](C(=O)O)[C@@H]1c2ccccc2C[C@H]1NC(=O)c1cc2sc(Cl)c(Cl)c2[nH]1", "0.4 mL/min/kg"),
    ("O=C(O)C[C@@H]1c2ccccc2C[C@H]1NC(=O)c1cc2sc(Cl)c(Cl)c2[nH]1", "0.23 mL/min/kg"),
]

====

Target: CYP2D6 (Homo sapiens, UniProt P10635)
Sequence (P10635 whole entry): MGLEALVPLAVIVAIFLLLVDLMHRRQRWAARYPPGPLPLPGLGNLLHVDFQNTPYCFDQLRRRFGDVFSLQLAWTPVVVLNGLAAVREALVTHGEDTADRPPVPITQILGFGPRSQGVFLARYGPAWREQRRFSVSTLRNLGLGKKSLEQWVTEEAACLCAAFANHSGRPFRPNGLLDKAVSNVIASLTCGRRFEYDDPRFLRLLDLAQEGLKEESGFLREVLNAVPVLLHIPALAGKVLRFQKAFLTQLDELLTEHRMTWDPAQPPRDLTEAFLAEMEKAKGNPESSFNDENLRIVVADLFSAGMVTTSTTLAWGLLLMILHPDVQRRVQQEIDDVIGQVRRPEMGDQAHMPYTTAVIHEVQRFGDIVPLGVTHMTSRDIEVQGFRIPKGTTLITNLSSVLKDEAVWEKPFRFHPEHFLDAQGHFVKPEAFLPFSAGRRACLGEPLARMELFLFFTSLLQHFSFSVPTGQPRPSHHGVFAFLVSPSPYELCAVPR
Assay: Inhibition of CYP2D6 at 10 uM
Assay type: ADME
We begin with a simple list: items and their reported inhibition at 10 µM.
PARAMETER_MEASURED: inhibition at 10 µM

# MOL_SMILES, RESULT
records = [
    ("COCC[C@H](C(=O)O)[C@@H]1c2ccccc2C[C@H]1NC(=O)c1cc2sc(Cl)c(Cl)c2[nH]1", "< 50%"),
    ("O=C(O)C[C@@H]1c2ccccc2C[C@H]1NC(=O)c1cc2sc(Cl)c(Cl)c2[nH]1", "< 50%"),
]
